Just for reference, PubChem BioAssay AID330 is where these values come from.

test system: P388 leukemia ip, CD2F1 mice, survival T/C; experiment: NCI In Vivo Anticancer Drug Screen. Data for tumor model P388 Leukemia (intraperitoneal) in CD2F1 (CDF1) mice; settings: endpoint: median survival time; dose: 15.0 mg/kg/injection; schedule: Q01DX005 (ip); vehicle: saline with Tween-80; higher = longer survival
Inconclusive results and toxic doses are left out.
Attribute Measured: T/C

Entry Smiles	Value Measured
CC1=C(C(=O)NCc2ccccc2)C(c2cccc([N+](=O)[O-])c2)C(C(=O)NCc2ccccc2)=C(C)N1	107 % of control

I would be grateful if you could share the reported T/C for C1=C[N-]c2c3c(ccc2=C1)=CC=C[N-]3.C1=C[N-]c2c3c(ccc2=C1)=CC=C[N-]3.C1=C[N-]c2c3c(ccc2=C1)=CC=C[N-]3.[Co+3].[O-][Cl+3]([O-])([O-])O .
98 % of control

// next record CCOP(OCC)SSCn1nc2ccc3ccccc3n2c1=O
98 % of control

And what about the compound N/N=C1\c2ccccc2-c2cccc(O)c21 ?
97 % of control

Same lookup for CCCCOc1cc(C(=O)NCCN(C)C)c2ccccc2n1 , please.
106 % of control

Cool, now Cc1cc(C)c(S(=O)(=O)N/N=C(\CBr)c2ccccc2)c(C)c1
91 % of control

Okay, and COc1cccc2c1C(=O)c1c(O)c(CCl)cc(O)c1C2=O ?
89 % of control

Now this one: N#CC(=O)Nc1ccc(Cl)cc1
109 % of control
